Values compiled from patent US7235577B1.

tgt: Jurkat-SK (Homo sapiens, UniProt Q9H2S1)
Construct: endogenous in cells
Sequence (Q9H2S1 whole entry): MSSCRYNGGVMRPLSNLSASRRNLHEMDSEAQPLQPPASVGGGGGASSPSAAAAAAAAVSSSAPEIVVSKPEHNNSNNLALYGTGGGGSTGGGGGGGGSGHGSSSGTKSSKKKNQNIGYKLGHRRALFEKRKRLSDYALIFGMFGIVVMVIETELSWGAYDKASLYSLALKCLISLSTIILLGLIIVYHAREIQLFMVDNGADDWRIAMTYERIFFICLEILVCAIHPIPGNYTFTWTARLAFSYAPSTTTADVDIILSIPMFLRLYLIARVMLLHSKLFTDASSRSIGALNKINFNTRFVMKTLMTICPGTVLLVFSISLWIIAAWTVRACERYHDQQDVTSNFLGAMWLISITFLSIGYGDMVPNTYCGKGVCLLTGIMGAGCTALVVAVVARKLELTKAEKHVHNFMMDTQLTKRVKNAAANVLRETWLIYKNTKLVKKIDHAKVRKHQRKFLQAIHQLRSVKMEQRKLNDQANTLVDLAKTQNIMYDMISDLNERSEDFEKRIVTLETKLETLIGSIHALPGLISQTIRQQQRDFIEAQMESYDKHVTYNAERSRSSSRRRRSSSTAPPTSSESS
assayComment: Selectivity patch clamp, Jurkat SKCa channel
observable: Kd
Please state the number and follow it with the unit.

Recorded Kd of `Clc1ccccc1C(c1ccccc1)(c1ccccc1)n1cccn1` , please.
23 µM

----------
tgt: human IKCa1 channel (Homo sapiens, UniProt O15554)
Sequence (O15554 whole entry): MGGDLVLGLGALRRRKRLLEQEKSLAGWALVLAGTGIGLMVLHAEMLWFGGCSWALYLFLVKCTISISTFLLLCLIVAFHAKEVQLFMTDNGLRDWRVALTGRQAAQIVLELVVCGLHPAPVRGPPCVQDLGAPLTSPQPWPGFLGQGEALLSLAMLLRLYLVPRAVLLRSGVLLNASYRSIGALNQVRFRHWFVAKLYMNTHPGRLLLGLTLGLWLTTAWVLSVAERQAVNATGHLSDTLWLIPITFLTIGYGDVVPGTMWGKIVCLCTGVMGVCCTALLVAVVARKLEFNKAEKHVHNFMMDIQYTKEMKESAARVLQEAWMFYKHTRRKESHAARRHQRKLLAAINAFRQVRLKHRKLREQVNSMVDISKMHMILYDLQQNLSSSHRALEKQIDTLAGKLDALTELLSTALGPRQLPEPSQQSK
assayComment: cell-based
observable: pKd
// pKd: -log10(molar conc.)

Previously resolved entries follow.
[
  {
    "compound": "OC(c1ccccc1)(c1ccccc1)c1cccc(C(F)(F)F)c1 [Compound T56]",
    "reportedResult": 6.19
  },
  {
    "compound": "OC(c1ccccc1)(c1ccccc1)c1cccs1 [Compound T9, (2-Thienyl)diphenyl methanol]",
    "reportedResult": 5.82
  },
  {
    "compound": "Fc1ccc(C(c2ccccc2)(c2ccccc2)n2cccn2)cc1 [Compound T28]",
    "reportedResult": 6.70
  },
  {
    "compound": "O=[N+]([O-])c1ccc(S(=O)(=O)c2cnc(NC(c3ccccc3)(c3ccccc3)c3ccccc3Cl)s2)cc1 [Compound T81]",
    "reportedResult": 4.82
  },
  {
    "compound": "Clc1ccccc1C(NCCCNC(c1ccccc1)(c1ccccc1)c1ccccc1Cl)(c1ccccc1)c1ccccc1 [Compound T49]",
    "reportedResult": 4.49
  },
  {
    "compound": "COc1ccc(C(O)(c2ccccc2)c2ccc(OC)cc2)cc1 [Compound T15, Bis-(4-methoxyphenyl)phenyl methanol]",
    "reportedResult": 5.00
  },
  {
    "compound": "c1ccc(C(c2ccccc2)(c2ccccc2)n2cccc2)cc1 [Compound T10, 1-Trityl-1H-pyrrole]",
    "reportedResult": 4.55
  }
]

Recorded pKd of FC(F)(F)c1ccccc1C(Nc1ncccn1)(c1ccccc1)c1ccccc1 [Compound T73] , please.
4.82
